test_system: human carbonic anhydrase II (Homo sapiens, UniProt P00918)
test_protocol: Carbonic Anhydrase Inhibition Assay
Type: biochemical
Structures can show the parent of a compound that is named as a salt.
Measured IC50, listed per entry for reference.

compound: NS(=O)(=O)c1cc2c(s1)S(=O)(=O)CC(=O)N2
result: < 10 µM

Please find the next compound below.
Task item: Using the record for COCCN(CCOC)CCC1CNc2cc(S(N)(=O)=O)sc2S1(=O)=O (centres unmarked) [Example 19, Hydrochloride] , state its measured IC50.
Reply: < 10 µM

---

test_system: human carbonic anhydrase II (Homo sapiens)
test_protocol: Carbonic Anhydrase Binding Assay
Where a name gives a salt, the structure may show the parent alone.
Each item that follows carries a reported Ki.

compound: NS(=O)(=O)c1cc2c(s1)S(=O)(=O)CC(=O)N2 [Example 4]
test_system: human carbonic anhydrase II (Homo sapiens)
measure_name: Ki
result: < 10 µM

Now consider a different compound.
Task item: Specify Ki for COCCN(CCOC)CCC1CNc2cc(S(N)(=O)=O)sc2S1(=O)=O (centres unmarked) [Example 19, Hydrochloride] and stop.
Reply: < 10 µM
